- System: PD-1/PD-L1 (Homo sapiens (Human), UniProt Q9NZQ7)
- Sequence (Q9NZQ7 19-238): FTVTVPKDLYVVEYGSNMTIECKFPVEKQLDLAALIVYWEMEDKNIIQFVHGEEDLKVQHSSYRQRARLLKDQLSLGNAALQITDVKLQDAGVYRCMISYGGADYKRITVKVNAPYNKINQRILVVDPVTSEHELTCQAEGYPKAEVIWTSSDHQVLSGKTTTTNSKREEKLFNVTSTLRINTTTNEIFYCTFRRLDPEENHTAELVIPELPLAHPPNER
- Assay Text: PD-1/PD-L1 Binding Assay (Alphascreen)
- Settings: range symbols
- Procedure: PD-1/PD-L1 Binding Assay (Alphascreen) The assays were conducted in a standard black 384-well polystyrene plate with a final volume of 20 μL. Inhibitors were first serially diluted in DMSO and then added to the plate wells before the addition of other reaction components. The final concentration of DMSO in the assay was 1%. […] Read the AlphaLISA signal value using the Envision Reader. […]
pIC50: −log10 of the molar value.
Test Readout: pIC50

{"Smi": "Cc1c(-c2nc3cc(CN4CCC[C@H]4C(=O)O)c(OC(F)F)cc3o2)cccc1-c1cccc(-c2cnc(CN3CCCC3)c(F)c2)c1C(F)F", "Value Observed": "8.30 to 10.00"}
{"Smi": "Cc1c(-c2ccc(CN3CC[C@@H](c4ccccc4)C3)c(F)c2)cccc1-c1cccc(-c2nc3cc(CN4CCC[C@H]4C(=O)O)c(OC(F)F)cc3o2)c1C", "Value Observed": "7.30 to 8.30"}
{"Smi": "Cc1c(-c2ccc3c(c2)CN(CCC(=O)O)C3)cccc1-c1cccc(-c2nc3cc(CN4CCC[C@H]4C(=O)O)c(OC(F)F)cc3o2)c1C", "Value Observed": "8.30 to 10.00"}
